The values you see were collected from patent US20210355106A1.

# measured-on: USP7 (Homo sapiens, UniProt Q93009, C315A)
# Construct: 0.25 nM His-His-USP7 (aa208-560, |C315A|) was incubated with compound; His-His (N)
# Sequence (Q93009 208-560 C315A): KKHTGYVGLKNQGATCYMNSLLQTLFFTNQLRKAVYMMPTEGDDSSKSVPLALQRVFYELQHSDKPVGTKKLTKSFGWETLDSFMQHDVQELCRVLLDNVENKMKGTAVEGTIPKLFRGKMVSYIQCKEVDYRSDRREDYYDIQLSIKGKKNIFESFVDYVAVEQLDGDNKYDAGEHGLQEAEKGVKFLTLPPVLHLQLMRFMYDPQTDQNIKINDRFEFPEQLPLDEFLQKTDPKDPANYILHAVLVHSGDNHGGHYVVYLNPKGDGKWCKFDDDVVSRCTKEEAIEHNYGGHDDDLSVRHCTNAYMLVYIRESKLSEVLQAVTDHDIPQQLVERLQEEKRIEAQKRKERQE
# test-method-notes: Inhibition of USP7 by Fluorescence Intensity (FLINT) readings, Ubiquitin-Rhodamine-110 substrate
# Format: biochemical
# condition-description: 0.25 nM His-His-USP7 (aa208-560), 60 minutes at 30° C. preincubation; Ki determined from IC50 according to Cer et al.
Counter-ions that a name gives are not always drawn.
# Ki per entry
Respond with the bare value in nM.

molecule	test-readout	units-label	data-value
Nc1c(Oc2ccc(Cl)cc2)ncn(CC2(O)CCN(C(=O)[C@@H]3CCNC[C@H]3c3ccccc3)CC2)c1=O [Example 14, hydrochloride]	Ki	nM	115
COc1cc(Oc2ncn(C[C@@]3(O)CCN(C(=O)[C@@H]4CCN(Cc5cccnn5)C[C@H]4c4ccccc4)CC3(F)F)c(=O)c2N)ccc1F	Ki	nM	48.3
Cc1cnc(CN2CC[C@@H](C(=O)N3CC[C@](O)(Cn4cnc(Oc5ccc(F)cc5)c(N)c4=O)C(F)(F)C3)[C@H](c3ccccc3)C2)cn1	Ki	nM	23.9

Now, please, on to the next molecule.
Just so you know, measured Ki for Cc1nc(-c2ccc(C(F)(F)F)nc2)sc1C(=O)N1CC[C@@H](C(=O)N2CCC(O)(Cn3cnc(Oc4cccc(C(F)(F)F)c4)c(N)c3=O)CC2)[C@H](c2ccccc2)C1 came out at 7.98
